Target: PRMT5 (Homo sapiens, UniProt O14744)
Construct: purchased Viva (custom protein)
Sequence (O14744 whole entry): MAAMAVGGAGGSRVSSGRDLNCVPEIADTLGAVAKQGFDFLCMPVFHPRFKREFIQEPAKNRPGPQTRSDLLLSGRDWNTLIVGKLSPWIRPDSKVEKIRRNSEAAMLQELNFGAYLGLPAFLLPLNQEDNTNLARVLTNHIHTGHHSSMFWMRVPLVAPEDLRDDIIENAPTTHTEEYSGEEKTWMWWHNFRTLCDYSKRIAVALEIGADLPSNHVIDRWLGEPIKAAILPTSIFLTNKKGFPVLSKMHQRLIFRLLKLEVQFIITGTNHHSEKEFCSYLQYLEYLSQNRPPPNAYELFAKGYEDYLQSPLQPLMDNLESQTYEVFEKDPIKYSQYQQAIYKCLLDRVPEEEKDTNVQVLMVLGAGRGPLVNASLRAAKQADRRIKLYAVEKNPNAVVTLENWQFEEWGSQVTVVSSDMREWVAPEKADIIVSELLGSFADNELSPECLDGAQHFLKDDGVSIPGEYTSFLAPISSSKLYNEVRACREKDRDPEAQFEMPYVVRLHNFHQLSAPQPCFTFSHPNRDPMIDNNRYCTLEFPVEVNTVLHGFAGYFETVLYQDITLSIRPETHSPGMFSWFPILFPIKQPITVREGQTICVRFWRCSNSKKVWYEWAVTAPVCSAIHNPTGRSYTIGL
Sequence (Q9BQA1 whole entry partner): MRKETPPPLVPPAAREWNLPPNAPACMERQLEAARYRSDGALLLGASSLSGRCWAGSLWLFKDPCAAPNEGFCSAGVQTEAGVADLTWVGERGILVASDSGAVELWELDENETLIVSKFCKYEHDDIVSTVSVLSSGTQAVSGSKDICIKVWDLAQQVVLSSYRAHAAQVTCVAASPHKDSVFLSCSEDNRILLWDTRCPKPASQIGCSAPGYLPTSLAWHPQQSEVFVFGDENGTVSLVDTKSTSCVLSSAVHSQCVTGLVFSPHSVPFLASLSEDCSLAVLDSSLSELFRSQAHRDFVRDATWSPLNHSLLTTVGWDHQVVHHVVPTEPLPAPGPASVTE
Assay: PRMT5 IC50 assay in the presence of SAM as cofactor
Type: biochemical
Listed molecules paired with reported IC50
property measured: IC50

{"smiles record": "CC(C)CC(=O)N1CC(Nc2cc(C(=O)NC[C@H](O)CN3CCc4cc(OCc5cnco5)ccc4C3)ccn2)C1", "measured": "50 to 500 nM"}
{"smiles record": "CN(C)CCOc1cc(C(=O)NC[C@H](O)CN2CCc3cc(OCc4cnco4)ccc3C2)cc(NC2CCC2)n1", "measured": "50 to 500 nM"}
{"smiles record": "Cc1ncoc1COc1ccc2c(c1)CCN(C[C@@H](O)CNC(=O)c1cccc(NC3CCC3)c1)C2", "measured": "500 to 5000 nM"}
{"smiles record": "COCCN(C)c1cc(C(=O)NC[C@H](O)CN2CCc3cc(OCc4ocnc4C)c(F)cc3C2)cc(NC2CCN(C(C)=O)CC2)n1", "measured": "50 to 500 nM"}
{"smiles record": "Cc1ncoc1COc1ccc2c(c1)CCN(C[C@@H](O)CNC(=O)c1cc(NC3CCCCC3)ncn1)C2", "measured": "50 to 500 nM"}
{"smiles record": "Cc1ncoc1COc1ccc2c(c1)CCN(C[C@@H](O)CNC(=O)c1ccc3c(c1)CCN(C(=O)c1ccc(Br)cc1)C3)C2", "measured": "50 to 500 nM"}
{"smiles record": "O=C(NC[C@H](O)CN1CCc2cc(OCc3cn[nH]c3)cc(F)c2C1)c1ccnc(NC2CCC2)c1", "measured": "500 to 5000 nM"}
{"smiles record": "CC(C)C(=O)N1CC(Nc2cc(C(=O)NC[C@H](O)CN3CCc4cc(OCc5cnco5)ccc4C3)ccn2)C1", "measured": "500 to 5000 nM"}
{"smiles record": "Cc1c(OCc2cnco2)ccc2c1CCN(C[C@@H](O)CNC(=O)c1ccnc(N[C@H]3C[C@H](O)C3)c1)C2", "measured": "500 to 5000 nM"}
{"smiles record": "CC(=O)N1CCN(c2nc(NC3COC3)cc(C(=O)NC[C@H](O)CN3CCc4c(ccc(OCc5ocnc5C)c4C)C3)n2)CC1", "measured": "500 to 5000 nM"}
{"smiles record": "O=C(NC[C@H](O)CN1CCc2nc(OCc3cnco3)ccc2C1)c1ccnc(NC2CCC2)c1", "measured": "500 to 5000 nM"}
{"smiles record": "COc1cc(C(=O)NC[C@H](O)CN2CCc3c(ccc(OCc4cnco4)c3Cl)C2)cc(NC2CCC2)n1", "measured": "500 to 5000 nM"}
{"smiles record": "COc1cnc(NC2CCC2)cc1C(=O)NC[C@H](O)CN1CCc2cc(OCc3ocnc3C)ccc2C1", "measured": "50 to 500 nM"}
{"smiles record": "CC(=O)N1CC(Nc2cc(C(=O)NC[C@H](O)CN3CCc4cc(OCc5cnco5)ccc4C3)ccn2)C1", "measured": "50 to 500 nM"}
{"smiles record": "CC(=O)N1CC(Nc2cc(C(=O)NC[C@H](O)CN3CCc4c(ccc(OCc5cnco5)c4Cl)C3)ccn2)C1", "measured": "50 to 500 nM"}

====

System: HAP1 MTAP-intact
Assay: SDMA in-cell western assay, HAP1 MTAP-intact cell line
Type: cell-based
Details: Homo sapiens
Each entry below carries its recorded IC50.
property measured: IC50

{"molecule": "CCN1CCN(c2nc(NC3COC3)cc(C(=O)NC[C@H](O)CN3CCc4cc(OCc5ocnc5C)ccc4C3)n2)CC1 [Compound 544]", "experimental system": "HAP1 MTAP-intact", "measured": "1000 to 10000 nM"}
{"molecule": "CC(C)C(=O)N1CCN(c2nc(NC3COC3)cc(C(=O)NC[C@H](O)CN3CCc4cc(OCc5cnco5)ccc4C3)n2)CC1 [Compound 313]", "experimental system": "HAP1 MTAP-intact", "measured": "1000 to 10000 nM"}
{"molecule": "CC(=O)N1CCC(Nc2cc(C(=O)NC[C@H](O)CN3CCc4cc(OCc5cn[nH]c5)ccc4C3)ncn2)CC1 [Compound 201]", "experimental system": "HAP1 MTAP-intact", "measured": "1000 to 10000 nM"}
{"molecule": "CCC(=O)N1CCN(c2cc(C(=O)NC[C@H](O)CN3CCc4cc(OCc5cnco5)ccc4C3)cc(NC3CCC3)n2)CC1 [Compound 397]", "experimental system": "HAP1 MTAP-intact", "measured": "1000 to 10000 nM"}
{"molecule": "O=C(NC[C@H](O)CN1CCc2cc(OCc3cnco3)ccc2C1)c1cc(NC2CCC2)ncc1Cl [Compound 284]", "experimental system": "HAP1 MTAP-intact", "measured": "< 1000 nM"}
